Test system: SNB-19 CNS
protocol_notes: NCI-60 one-dose screen, 48 h (100 = growth as untreated, 0 = no growth, -100 = all killed)
measurement_parameters: 10 µM unless noted
The panel holds about 83,000 compounds, 20% with a hit somewhere; the sample as a whole holds those more often.
readout_type: growth (%)
# output: bare number, implied unit %

Some molecules with known growth results, for comparison:
molecule | readout_type | value
COc1ccc(C/C(=C(\C)c2ccc(OCCN3CCCC3)cc2)c2ccc(OCCN3CCCC3)cc2)cc1 | growth | 72.6
O=C(c1nc2ccccc2[nH]1)C1C(c2ccc(Br)cc2)C2CC3CCCC[C@H]3N2[C@@]12C(=O)Nc1cc(Cl)ccc12 (some centres undefined) | growth | 49.8
COc1ccc(C/C(C)=C(/c2ccc(OCCCN(C)C)cc2)c2ccc(OC(C)=O)cc2)cc1 | growth | 82.3

Prompt line: # input molecule: O=C(/C(=C/c1ccc([N+](=O)[O-])cc1)SCc1ccc(F)cc1)c1ccc(F)cc1 ; wanted: its growth
Response line: 68.4

----------
Test system: HOP-62 NSCLC
protocol_notes: NCI-60 one-dose screen, 48 h
measurement_parameters: 10 µM unless noted
This is part of a sample that, as a whole, favours compounds with a hit. Of some 83,000 tested, about 20% had one in any assay. Activity calls are given as the source filed them. Rule for the calls: active = growth percent below 10; inactive = the rest.
Please answer using one outcome listed in T for active, F for inactive

molecule | assigned_class
N/C(=N\C(N)=N\c1nc2ccccc2s1)c1cccc(Cl)c1 | T

Prompt line: Tell me the assay call for CCOC(=O)Oc1c(OC)cc(C(=O)c2ccc(OC)c(OC(=O)CCl)c2OC)cc1OC please.
Response line: F

Prompt line: Tell me the assay call for C[C@H]1[C@H](C)CC[C@]2(C(=O)Nc3ccc4ncccc4c3)CC[C@]3(C)C(=CC[C@@H]4[C@@]5(C)CCCNC(C)(C)[C@@H]5CC[C@]43C)[C@H]12 please.
Response line: F

Prompt line: Tell me the assay call for COc1cc2nc(-c3ccc(Cl)cc3)cc(OCCCN3CCC(O)CC3)c2cc1OC please.
Response line: F

Prompt line: Tell me the assay call for C=C1C(=O)O[C@H]2[C@H]1CC/C(COC(=O)NCc1c[nH]c3ccc(F)cc13)=C\CC[C@@]1(C)O[C@@H]21 please.
Response line: F

Prompt line: Tell me the assay call for C=C1C(=O)O[C@H]2[C@H]1CC/C(C(=O)NCCCCCNC(=O)/C1=C/CC[C@@]3(C)O[C@H]3[C@H]3OC(=O)C(=C)[C@@H]3CC1)=C\CC[C@@]1(C)O[C@@H]21 please.
Response line: F

Prompt line: Tell me the assay call for Cc1cc2c(C(=O)NCC#N)cccc2n1-c1nc2c(c(NCc3ccccc3)n1)CCCC2 please.
Response line: T

Prompt line: Tell me the assay call for COc1ccccc1NS(=O)(=O)c1cccc(C(=O)Nc2ccc(Br)cc2)c1 please.
Response line: F

Prompt line: Tell me the assay call for CCCCCC(=O)Oc1ccc(/C(=C(\C)c2ccccc2)c2ccc(OCCN3CCCCC3)cc2)cc1 please.
Response line: F

Prompt line: Tell me the assay call for O=C(Cc1ccc(/C=C/C(=O)c2ncc[nH]2)cc1)Nc1ccc(Cl)cc1 please.
Response line: T

Prompt line: Tell me the assay call for COc1ccc(/C=C/c2nc(Nc3cccc(NC(C)=O)c3)c3ccccc3n2)cc1 please.
Response line: F

Prompt line: Tell me the assay call for CCc1c2c(nc3ccc(OCc4ccc(B(O)O)cc4)cc13)-c1cc3c(c(=O)n1C2)COC(=O)[C@]3(O)CC please.
Response line: T

Prompt line: Tell me the assay call for CCOC(=O)c1cc(C(=O)c2ccc(OC)c(OC)c2)n2ccc(/C=C/c3cc[n+](CC(=O)c4ccc(OC)c(OC)c4)cc3)cc12 please.
Response line: F

Prompt line: Tell me the assay call for O=C(Nc1ccccc1C(=O)N/N=C(\c1ccccc1)c1ccccn1)c1ccc(F)cc1 please.
Response line: F

Prompt line: Tell me the assay call for N#CC1C(C#N)C2c3ccccc3C=CN2C1C(=O)c1ccc(Br)cc1 (configuration not stated) please.
Response line: F

Prompt line: Tell me the assay call for Cc1cccc(NC(=O)Nc2ccc(-c3ccc4c(c3)NC(=O)/C4=C\c3ccc[nH]3)cc2)c1 please.
Response line: F

Prompt line: Tell me the assay call for Nc1c(C(=O)Nc2ccnc3ccccc23)sc2nc3c(cc12)CN(Cc1ccccc1)CC3 please.
Response line: F

Prompt line: Tell me the assay call for CCCCCCCCO/N=C\c1c2c(O)c3c(O)c(C)c4c(c3c1O)C(=O)C(C)(O/C=C\C(OC)C(C)C(OC(C)=O)C(C)C(O)C(C)C(O)C(C)/C=C\C=C(\C)C(=O)N2)O4 (configuration not stated) please.
Response line: F

Prompt line: Tell me the assay call for O=C1c2ccccc2C(=O)c2c([N+](=O)[O-])ccc(Cl)c21 please.
Response line: F

Prompt line: Tell me the assay call for C=C(C)[C@@H]1CC[C@]2(C(=O)N[C@@H](Cc3ccccc3)C(=O)OC)CC[C@]3(C)[C@H](CC[C@@H]4[C@@]5(C)CCC(=O)C(C)(C)[C@@H]5CC[C@]43C)[C@@H]12 please.
Response line: F

Prompt line: Tell me the assay call for CCCCCCNC(=O)Nc1ccc2cc3ccc(NC(=O)NCCCCCC)cc3nc2c1 please.
Response line: F

Prompt line: Tell me the assay call for CN1[C@@H]2CC[C@H]1/C(=C\c1ccccc1)C(=O)/C2=C/c1ccccc1 please.
Response line: F

----------
System: DU-145 prostate
protocol_notes: NCI-60 one-dose screen, 48 h (100 = growth as untreated, 0 = no growth, -100 = all killed)
measurement_parameters: 10 µM unless noted
The panel holds about 83,000 compounds, 20% with a hit somewhere; the sample as a whole holds those more often.
Please note: growth exactly at 40% is not satisfied. Only values below 40% get satisfied.

compound | assigned_class
O=C1/C=C/[C@@H](O)[C@@H]2C[C@@H](O)C[C@H]2/C=C/CCC[C@H](CCc2ccc3ncccc3c2)O1 | satisfied

Prompt line: In the record for Oc1ccc(C(c2ccc(O)cc2)c2ccc(Br)cn2)cc1 , is growth less than 40%?
Response line: not satisfied

Prompt line: In the record for COC(=O)C1=C(C(=O)ON)C2C=CC1(C(Cc1ccccc1)Nc1ccccc1)O2 (stereo not given) , is growth less than 40%?
Response line: not satisfied

Prompt line: In the record for O=C(C1CCC1)N1N=C(c2ccc(-n3ccc(C(F)(F)F)n3)cc2)CC1c1ccc[nH]1 (stereo not given) , is growth less than 40%?
Response line: not satisfied

----------
growth listing for selected molecules.
System: LOX IMVI melanoma
protocol_notes: NCI-60 one-dose screen, 48 h (100 = growth as untreated, 0 = no growth, -100 = all killed)
measurement_parameters: 10 µM unless noted
About 83,000 compounds went through this panel and 20% of them were active in at least one assay; those are over-represented in the sample as a whole.
# output: bare number, implied unit %

Some molecules with known growth results, for comparison:
smiles_text | growth (%)
NC1=NN=C(N)C1=Cc1cc2ccccc2n2nnnc12 | 85.1
N#C/C(=C\c1ccccn1)c1nc2cc(Cl)ccc2s1 | 72.7

Prompt line: # input molecule: CCN(c1ccccc1)S(=O)(=O)c1cc([N+](=O)[O-])ccc1Cl ; wanted: its growth
Response line: 52.4

Prompt line: # input molecule: O=[N+]([O-])c1ccc(NC(=S)N/N=C/c2cc3ccccc3n3nnnc23)cc1 ; wanted: its growth
Response line: 39.2

Prompt line: # input molecule: O=S(=O)(NCCNc1nccc(-c2c(-c3cccc(O)c3)nc3occn23)n1)c1ccc(Cl)cc1 ; wanted: its growth
Response line: 72.3

Prompt line: # input molecule: COc1cc(/C=C\C(=O)O)ccc1OCc1ccccc1 ; wanted: its growth
Response line: 95.7

----------
System: KM12 colon
protocol_notes: NCI-60 one-dose screen, 48 h
measurement_parameters: 10 µM unless noted
About 83,000 compounds went through this panel and 20% of them were active in at least one assay; those are over-represented in the sample as a whole. Active and inactive are the calls of the source. The calls were made as follows: active = growth percent below 10; inactive = the rest.
Please answer using one outcome listed in active, inactive

Look over these answered cases.
molecule | assigned_class
COC(=O)CNC(=O)[C@]12CCC(C)(C)C[C@H]1C1=CC[C@@H]3[C@@]4(C)Cc5c([nH]c6ccccc56)C(C)(C)[C@@H]4CC[C@@]3(C)[C@]1(C)CC2 | inactive
O=C(CCN1CCCC1)Nc1ccc2c(NCCc3ccccc3)c3ccccc3nc2c1 | active
CCc1c(Cl)nc(N)nc1Nc1ccc(C)c(C)c1 | inactive
COc1cc2cc(Oc3cccc(NC(=O)Nc4cc(C(F)(F)F)cc(C(F)(F)F)c4)c3)c(C)nc2cc1OC | active
C#Cc1cccc(NC(=O)Nc2cccc(NC(=O)CCl)c2)c1 | inactive
COc1cccc(-c2nc3occn3c2-c2ccnc(NCCNS(=O)(=O)c3ccc(C(F)(F)F)cc3)n2)c1 | inactive
COc1ccc(/C=C/c2nc(Nc3cccc(NC(C)=O)c3)c3ccccc3n2)cc1 | inactive
O=C1c2c(c3c4cccc(F)c4[nH]c3c3ccc4ccccc4c23)C(=O)N1O | inactive

Prompt line: Tell me the assay call for OCc1cnccc1NCCCOc1ccccc1 please.
Response line: inactive

Prompt line: Tell me the assay call for O=[N+]([O-])CC(c1ccccc1F)c1c[nH]c2ccccc12 (centres undefined) please.
Response line: inactive

Prompt line: Tell me the assay call for Cc1ccc(/C=C(/C#N)n2nnc3cccc(F)c32)cc1 please.
Response line: active

Prompt line: Tell me the assay call for COc1ccc(-c2cnc3c(-c4cccc5cnccc45)cnn3c2)cc1 please.
Response line: inactive
